Test system: HCC1937
Test: drug sensitivity score (DSS), CellTox Green (DSS (AUC-based score)); higher = stronger drug effect (viability inhibition or cytotoxicity); extreme values may be limits of the assay
Details: incubation time: 72 h
compounds and their reported drug sensitivity score
Answer field: number only, no words.

CCC/C=C/C=C/C(=O)O[C@H]1/C(=C/C(=O)OC)C[C@H]2C[C@H]([C@@H](C)O)OC(=O)C[C@H](O)C[C@@H]3C[C@H](OC(C)=O)C(C)(C)[C@](O)(C[C@@H]4C/C(=C/C(=O)OC)C[C@H](/C=C/C(C)(C)[C@]1(O)O2)O4)O3 [Bryostatin 1]	4.81
CNC(=O)c1cc(Oc2ccc(NC(=O)Nc3ccc(Cl)c(C(F)(F)F)c3)cc2)ccn1 [Sorafenib]	0
Cc1ccc(Nc2nccc(N(C)c3ccc4c(C)n(C)nc4c3)n2)cc1S(N)(=O)=O [Pazopanib]	0

Quick one: drug sensitivity score of Cc1cccc(-c2nn3c(c2-c2ccnc4ccc(C(N)=O)cc24)CCC3)n1 [Galunisertib] ?
0

Now try O=C(Nc1c[nH]nc1-c1nc2ccc(CN3CCOCC3)cc2[nH]1)NC1CC1 [AT9283] .
0

Now try CO[C@@H](C(=O)N1Cc2[nH]nc(NC(=O)c3ccc(N4CCN(C)CC4)cc3)c2C1)c1ccccc1 [Danusertib] .
1.64

###

Test system: MDA-MB-468
Assay: normalised response (% of control), CellTox Green; higher = less cell death (100 = DMSO, 0 = benzethonium chloride kill control)
Settings: incubation time: 72 h
Quantity Kind: normalised response (%)
Express it in %; write the number only.

Please review the following examples before continuing.
C[C@]12C=CC(=O)C=C1CC[C@@H]1[C@@H]2[C@@H](O)C[C@@]2(C)[C@H]1CC[C@]2(O)C(=O)CO [Prednisolone] (1000 nM)	156
CCCCC/C=C/C=C1/C(=O)C=C[C@@H]1C/C=C\CCCC(=O)O [15D-PGJ2] (80 nM)	155
Cn1cc(CNCC2CCN(c3ncc(C(=O)NO)cn3)CC2)c2ccccc21 [Quisinostat] (100 nM)	43.3
Nc1ccccc1NC(=O)c1ccc(CNc2nccc(-c3cccnc3)n2)cc1 [Mocetinostat] (1000 nM)	62.9
O=C(NC[C@H](O)CO)c1ccncc1Nc1ccc(I)cc1F [Pimasertib] (100 nM)	108
CCCCC/C=C/C=C1/C(=O)C=C[C@@H]1C/C=C\CCCC(=O)O [15D-PGJ2] (8 nM)	82
CO[C@@H](C(=O)N1Cc2[nH]nc(NC(=O)c3ccc(N4CCN(C)CC4)cc3)c2C1)c1ccccc1 [Danusertib] (1000 nM)	51.4
COc1nc(N)nc2c1ncn2[C@@H]1O[C@H](CO)[C@@H](O)[C@@H]1O [Nelarabine] (1000 nM)	102
COc1nc(N)nc2c1ncn2[C@@H]1O[C@H](CO)[C@@H](O)[C@@H]1O [Nelarabine] (10000 nM)	122
COc1ccc(-c2cc3c(C)nc(N)nc3n([C@H]3CC[C@H](OCCO)CC3)c2=O)cn1 (100 nM)	31

Quick one: normalised response of O=C(NC[C@H](O)CO)c1ccncc1Nc1ccc(I)cc1F [Pimasertib] (10000 nM) ?
169

Now try CC/C(=C(\c1ccc(O)cc1)c1ccc(OCCN(C)C)cc1)c1ccccc1 [4-hydroxytamoxifen] (1000 nM) .
128

###

Tested on: CAL-148
Assay: drug sensitivity score (DSS), CellTiter-Glo (DSS (AUC-based score)); higher = stronger drug effect (viability inhibition or cytotoxicity); extreme values may be limits of the assay
Conditions: incubation time: 72 h
Quantity Kind: drug sensitivity score

O=C1c2c(O)ccc(O)c2C(=O)c2c(NCCNCCO)ccc(NCCNCCO)c21 [Mitoxantrone]	3.82
C[C@]12C=CC(=O)C=C1CC[C@@H]1[C@@H]2[C@@H](O)C[C@@]2(C)[C@H]1CC[C@]2(O)C(=O)CO [Prednisolone]	0
CCCCC/C=C/C=C1/C(=O)C=C[C@@H]1C/C=C\CCCC(=O)O [15D-PGJ2]	0
COc1nc(N)nc2c1ncn2[C@@H]1O[C@H](CO)[C@@H](O)[C@@H]1O [Nelarabine]	0
Cc1cccc(-c2nn3c(c2-c2ccnc4ccc(C(N)=O)cc24)CCC3)n1 [Galunisertib]	0
c1cc(CN2CCCNCCNCCCNCC2)ccc1CN1CCCNCCNCCCNCC1 [Plerixafor]	0
Cc1c(CN2CCN(C(=O)[C@H](C)O)CC2)sc2c(N3CCOCC3)nc(-c3cnc(N)nc3)nc12 [GDC-0980]	12.4
CC/C(=C(\c1ccc(O)cc1)c1ccc(OCCN(C)C)cc1)c1ccccc1 [4-hydroxytamoxifen]	0
CC(=O)OC[C@H]1O[C@@H]([S-])[C@H](OC(C)=O)[C@@H](OC(C)=O)[C@@H]1OC(C)=O.CCP(CC)CC.[Au+] [Auranofin]	1.24

Here's the next entry for you.
Quick one: drug sensitivity score of COc1cc(CCc2cc(NC(=O)c3ccc(N4CC(C)NC(C)C4)cc3)n[nH]2)cc(OC)c1 (stereo not given) [AZD4547] ?
0

###

Tested on: BT-474
Assay: drug sensitivity score (DSS), CellTiter-Glo (DSS (AUC-based score)); higher = stronger drug effect (viability inhibition or cytotoxicity); extreme values may be limits of the assay
Settings: incubation time: 72 h
The label depends only on drug sensitivity score: true if it is at least 9, false if it is smaller.

Illustrative cases are given below, each with its answer.
Cc1c(CN2CCN(C(=O)[C@H](C)O)CC2)sc2c(N3CCOCC3)nc(-c3cnc(N)nc3)nc12 [GDC-0980]	false
CC(=O)OC[C@H]1O[C@@H]([S-])[C@H](OC(C)=O)[C@@H](OC(C)=O)[C@@H]1OC(C)=O.CCP(CC)CC.[Au+] [Auranofin]	false
Cc1cccc(-c2nn3c(c2-c2ccnc4ccc(C(N)=O)cc24)CCC3)n1 [Galunisertib]	false
C[C@]12C=CC(=O)C=C1CC[C@@H]1[C@@H]2[C@@H](O)C[C@@]2(C)[C@H]1CC[C@]2(O)C(=O)CO [Prednisolone]	false
Nc1ccccc1NC(=O)c1ccc(CNc2nccc(-c3cccnc3)n2)cc1 [Mocetinostat]	false

Identify whether the reported drug sensitivity score of the following molecule is 9 or greater: Cn1cc(CNCC2CCN(c3ncc(C(=O)NO)cn3)CC2)c2ccccc21 [Quisinostat]
true

Now try Cc1nc(Nc2ncc(C(=O)Nc3c(C)cccc3Cl)s2)cc(N2CCN(CCO)CC2)n1 [Dasatinib] .
true

Now try Nc1cccc2c1CN(C1CCC(=O)NC1=O)C2=O (stereo not drawn) [Lenalidomide] .
false

###

Tested on: CAL-120
Test: normalised response (% of control), CellTiter-Glo; higher = more viable cells (100 = DMSO, 0 = benzethonium chloride kill control)
Conditions: incubation time: 72 h
molecules and their reported normalised response

O=C(NC[C@H](O)CO)c1ccncc1Nc1ccc(I)cc1F [Pimasertib] (1000 nM)	73.6%

Quick one: normalised response of CS(=O)(=O)N1CCN(Cc2cc3nc(-c4cccc5[nH]ncc45)nc(N4CCOCC4)c3s2)CC1 [Pictilisib] (10 nM) ?
91.4%

Now try CCN(CC)CCNC(=O)c1c(C)[nH]c(/C=C2\C(=O)Nc3ccc(F)cc32)c1C [Sunitinib] (0.1 nM) .
105%

Now try Cc1cccc(-c2nn3c(c2-c2ccnc4ccc(C(N)=O)cc24)CCC3)n1 [Galunisertib] (100 nM) .
104%

Now try CC/C(=C(\c1ccc(O)cc1)c1ccc(OCCN(C)C)cc1)c1ccccc1 [4-hydroxytamoxifen] (1 nM) .
98.6%

Now try Cc1cccc(-c2nn3c(c2-c2ccnc4ccc(C(N)=O)cc24)CCC3)n1 [Galunisertib] (0.1 nM) .
104%

###

Test system: CAL-85-1
Assay: normalised response (% of control), CellTiter-Glo; higher = more viable cells (100 = DMSO, 0 = benzethonium chloride kill control)
Conditions: incubation time: 72 h
compounds and their reported normalised response

Please review the following examples before continuing.
Cc1c(CN2CCN(C(=O)[C@H](C)O)CC2)sc2c(N3CCOCC3)nc(-c3cnc(N)nc3)nc12 [GDC-0980] (100 nM)	99.9%
CCCCC/C=C/C=C1/C(=O)C=C[C@@H]1C/C=C\CCCC(=O)O [15D-PGJ2] (8 nM)	100%
Nc1ccccc1NC(=O)c1ccc(CNc2nccc(-c3cccnc3)n2)cc1 [Mocetinostat] (100 nM)	93.3%
Cn1cc(CNCC2CCN(c3ncc(C(=O)NO)cn3)CC2)c2ccccc21 [Quisinostat] (10 nM)	72.5%
C[C@]12O[C@H](C[C@]1(O)CO)n1c3ccccc3c3c4c(c5c6ccccc6n2c5c31)CNC4=O [Lestaurtinib] (10 nM)	102%
CC/C(=C(\c1ccc(O)cc1)c1ccc(OCCN(C)C)cc1)c1ccccc1 [4-hydroxytamoxifen] (100 nM)	105%
Nc1cccc2c1CN(C1CCC(=O)NC1=O)C2=O (stereo unspecified) [Lenalidomide] (100 nM)	100%
CC(=O)OC[C@H]1O[C@@H]([S-])[C@H](OC(C)=O)[C@@H](OC(C)=O)[C@@H]1OC(C)=O.CCP(CC)CC.[Au+] [Auranofin] (25 nM)	99%
C[C@]12C=CC(=O)C=C1CC[C@@H]1[C@@H]2[C@@H](O)C[C@@]2(C)[C@H]1CC[C@]2(O)C(=O)CO [Prednisolone] (100 nM)	109%
Cc1nc(Nc2ncc(C(=O)Nc3c(C)cccc3Cl)s2)cc(N2CCN(CCO)CC2)n1 [Dasatinib] (10 nM)	95.7%

Here's the next entry for you.
Quick one: normalised response of COc1ccc(-c2cc3c(C)nc(N)nc3n([C@H]3CC[C@H](OCCO)CC3)c2=O)cn1 (100 nM) ?
68.9%
